measured.target: T1, human IL-6 (human, UniProt P05231 30-212)
T1 construct: also called interleukin-6
T1 sequence (P05231 30-212 limits assumed): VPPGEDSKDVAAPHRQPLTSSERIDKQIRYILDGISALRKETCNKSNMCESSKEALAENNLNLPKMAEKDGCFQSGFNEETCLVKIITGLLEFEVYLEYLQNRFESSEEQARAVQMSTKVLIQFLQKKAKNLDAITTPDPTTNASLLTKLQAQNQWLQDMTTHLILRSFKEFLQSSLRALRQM
experiment.notes: SPR (Biacore T200), antibody from cell supernatant captured on Protein A, IL-6 flowed over, 37 C
We begin with a simple list: items and their reported koff.
Please reply with the bare figure in s⁻¹ and do not write the unit itself.

INSERT INTO results (binder, recorded_result) VALUES
  ('anti-IL-6 antibody, heavy chain I51H, G66D / light chain WT (antibody, human IgG1, V domains shown, Derived as m2; Engineered human IgG1) VH: EVQLVESGGGLVQPGGSLRLSCAASGFTFSPFAMSWVRQAPGKGLEWVAKHSPGGSWTYYSDTVTDRFTFSLDTSKSTAYLQMNSLRAEDTAVYYCARQLWGYYALDIWGQGTLVTVSS VL: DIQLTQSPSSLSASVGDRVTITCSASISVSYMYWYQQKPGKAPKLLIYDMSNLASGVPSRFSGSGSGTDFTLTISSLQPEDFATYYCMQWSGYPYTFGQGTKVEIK', 0.000529);

Return reported koff. Input binder: anti-IL-6 antibody, heavy chain T65R, G66D / light chain WT (antibody, human IgG1, V domains shown, Derived as m2; Engineered human IgG1) VH: EVQLVESGGGLVQPGGSLRLSCAASGFTFSPFAMSWVRQAPGKGLEWVAKISPGGSWTYYSDTVRDRFTFSLDTSKSTAYLQMNSLRAEDTAVYYCARQLWGYYALDIWGQGTLVTVSS VL: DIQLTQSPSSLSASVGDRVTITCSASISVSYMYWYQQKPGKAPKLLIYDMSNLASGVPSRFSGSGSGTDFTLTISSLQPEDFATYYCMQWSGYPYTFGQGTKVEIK
0.000444

Return reported koff. Input binder: anti-IL-6 antibody, heavy chain T63H, G66D / light chain WT (antibody, human IgG1, V domains shown, Derived as m2; Engineered human IgG1) VH: EVQLVESGGGLVQPGGSLRLSCAASGFTFSPFAMSWVRQAPGKGLEWVAKISPGGSWTYYSDHVTDRFTFSLDTSKSTAYLQMNSLRAEDTAVYYCARQLWGYYALDIWGQGTLVTVSS VL: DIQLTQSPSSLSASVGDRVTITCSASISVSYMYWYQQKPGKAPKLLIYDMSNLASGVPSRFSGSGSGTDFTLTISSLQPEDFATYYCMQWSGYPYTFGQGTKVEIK
0.00042

Return reported koff. Input binder: anti-IL-6 antibody, heavy chain S35L, G66D / light chain WT (antibody, human IgG1, V domains shown, Derived as m2; Engineered human IgG1) VH: EVQLVESGGGLVQPGGSLRLSCAASGFTFSPFAMLWVRQAPGKGLEWVAKISPGGSWTYYSDTVTDRFTFSLDTSKSTAYLQMNSLRAEDTAVYYCARQLWGYYALDIWGQGTLVTVSS VL: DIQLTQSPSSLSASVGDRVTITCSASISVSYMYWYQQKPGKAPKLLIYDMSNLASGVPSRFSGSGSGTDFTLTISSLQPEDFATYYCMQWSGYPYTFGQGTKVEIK
0.000351

Provenance of the data: patent US20240368267A1
